Tested on: Enterobacter cloacae P 99
Assay: In vitro antibacterial activity, MIC, Enterobacter cloacae P 99
Assay type: cell-based
Conditions: Enterobacter cloacae, P99
Give log10 of MIC for every item shown.
Please note: log10 values; quantity MIC; unit µg/mL.

For this molecule ( CCn1cc(C(=O)O)c(=O)c2cc([N+](=O)[O-])sc21 [Compound Y, reference compound] ), measured log10 of MIC is 1.70

For this molecule ( `CCn1cc(C(=O)O)c(=O)c2cc(/C=N\O)sc21` ), measured log10 of MIC is 0.49

For this molecule ( `CCn1cc(C(=O)O)c(=O)c2cc(C=NOCCCN(C)C)sc21` ), measured log10 of MIC is 1.10

For this molecule ( `CCn1cc(C(=O)O)c(=O)c2cc(C=NOC)sc21` ), measured log10 of MIC is 0.19

For this molecule ( `CCn1cc(C(=O)O)c(=O)c2cc(C=Nc3ccc(OC)cc3)sc21` ), measured log10 of MIC is 0.80

For this molecule ( `CCn1cc(C(=O)O)c(=O)c2cc(/C=N/O)sc21` ), measured log10 of MIC is 0.80

For this molecule ( `CCn1cc(C(=O)O)c(=O)c2cc(C=Nc3ccccc3O)sc21` ), measured log10 of MIC is 0.80

For this molecule ( `CCn1cc(C(=O)O)c(=O)c2cc(C=NO)sc21` ), measured log10 of MIC is 0.80

For this molecule ( `CCn1cc(C(=O)O)c(=O)c2cc(C=Nc3ccccc3)sc21` ), measured log10 of MIC is 1.70

====

System: Staphylococcus aureus 53154 IP
Experiment: In vitro antibacterial activity, MIC, Staphylococcus aureus 53154 IP
Format: cell-based
Settings: Staphylococcus aureus 53154 IP; 37° C., pH=7.4, inoculum 10^4; read-out: MIC
readout_label: MIC

For this molecule ( CCn1cc(C(=O)O)c(=O)c2cc(/C=N/O)sc21 [Compound B] ), measured MIC is 12.5 µg/mL

For this molecule ( CCn1cc(C(=O)O)c(=O)c2cc(C=NOC(C)(C)C)sc21 [Compound I] ), measured MIC is > 50 µg/mL

For this molecule ( CCn1cc(C(=O)O)c(=O)c2cc(/C=N\O)sc21 [Compound C] ), measured MIC is 12.5 µg/mL

For this molecule ( CCn1cc(C(=O)O)c(=O)c2cc([N+](=O)[O-])sc21 [Compound Y, reference compound] ), measured MIC is > 100 µg/mL

For this molecule ( CCn1cc(C(=O)O)c(=O)c2cc(C=Nc3ccccc3O)sc21 [Compound F] ), measured MIC is 100 µg/mL

====

Tested on: Klebsiella pneumoniae R 30
Test: In vitro antibacterial activity, MIC, Klebsiella pneumoniae R 30
Type: cell-based
Settings: R30; Klebsiella pneumoniae R 30; 37° C., pH=7.4, inoculum 10^4; read-out: MIC
Description: Tests carried out in vitro in accordance with the experimental procedure described hereunder have provided evidence of the antibacterial activity in question. For this purpose, the M.I.C. were determined i.e. the minimal inhibiting concentrations of the compound under study acting on the growth of the bacteria at 37° C. The serial dilutions method was used utilizing a MUELLER HINTON gelose medium at pH=7.4 and a bacterial inoculum of 10^4 units forming colonies. […]
Give MIC for every item shown.
Provide the reading as a plain figure in µg/mL.

For this molecule ( `CCn1cc(C(=O)O)c(=O)c2cc(C=Nc3ccccc3)sc21` ), measured MIC is 25

For this molecule ( `CCn1cc(C(=O)O)c(=O)c2cc(C=Nc3ccccc3O)sc21` ), measured MIC is 12.5
